- Test system: EPHA5
- Condition info: concentration: 1 μM, replicates: in singlicate; n = 1;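 further: KINOMEscan kinase panel screen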
Please provide measured %Inh for the entries that follow.
Your answer should be a plain number; it is taken to be in %.

Query: Please report the measured %Inh for `Fc1ccc(-c2nc[nH]c2-c2ccncc2)cc1`
Response: 0

Query: Please report the measured %Inh for `COc1ccc(Nc2nccc(NCCNC(=O)Nc3cc(C)ccc3C)n2)cc1`
Response: 0

Query: Please report the measured %Inh for `Fc1ccc(-c2nc3n(c2-c2ccncc2)CCS3)cc1`
Response: 10

Query: Please report the measured %Inh for `Nc1ncnc2occ(-c3ccc4c(c3)CCN4C(=O)Cc3cc(F)ccc3F)c12`
Response: 0

Query: Please report the measured %Inh for `COc1cccc(NC(=O)Nc2ccc(C)c(-c3ccc(C(=O)Nc4ccncc4)cc3)c2)c1`
Response: 2

* * *

- System: MARK2
- Condition info: concentration: 1 μM, replicates: in singlicate; n = 1
Please provide measured %Inh for the entries that follow.
Your answer should be a plain number; it is taken to be in %.

Query: Please report the measured %Inh for `COc1ccc(CSc2nnc(-c3ccc4ncsc4c3)o2)cc1C(F)(F)F`
Response: 24

Query: Please report the measured %Inh for `CNc1nc(-c2ccc3c(N)n[nH]c3c2)cc(N2C[C@@H](C(=O)Nc3ccccc3)CC[C@H]2C)n1`
Response: 0

Query: Please report the measured %Inh for COc1cccc(CNC(=O)NC2CCN(c3ccnc(Nc4ccc(F)cc4)n3)C2)c1 (stereo not drawn)
Response: 0

Query: Please report the measured %Inh for `O=C1NC(=O)C(c2ccc(Cl)cc2)=C1Nc1ccc(O)cc1`
Response: 1

Query: Please report the measured %Inh for Cn1cncc1C(=O)NC1CCN(c2ccnc(Nc3ccc(F)cc3)n2)C1 (stereo not drawn)
Response: 0

Query: Please report the measured %Inh for `Cc1ccccc1Cn1ccn2c(=O)cc(N3CCOCC3)nc12`
Response: 0

Query: Please report the measured %Inh for `CN1c2ccc(-c3ccc(C(N)=O)cc3)cc2-c2[nH]ncc2S1(=O)=O`
Response: 0

Query: Please report the measured %Inh for `O=c1cc(N2CCOCC2)nc2n(Cc3ccccc3F)ccn12`
Response: 0

Query: Please report the measured %Inh for `CCn1c(-c2ccccc2)nc2cnccc21`
Response: 0

Query: Please report the measured %Inh for `O=C(Nc1n[nH]c2nc(-c3cccs3)c(Br)cc12)C1CC1`
Response: 0

Query: Please report the measured %Inh for COc1ccc(Nc2nccc(N3CCC(NC(=O)c4cc5ccccc5s4)C3)n2)cc1 (stereo not drawn)
Response: 0

Query: Please report the measured %Inh for `Cc1ccc(NC(=O)c2ccc(Cl)cc2)cc1-c1ccc(C(=O)Nc2ccncc2)cc1`
Response: 80

Query: Please report the measured %Inh for `NS(=O)(=O)c1cccc(N/C=C2\C(=O)Nc3ccc(S(=O)(=O)Cc4c(Cl)cccc4Cl)cc32)c1`
Response: 0

Query: Please report the measured %Inh for COc1ccc(Nc2nccc(N3CCC(NC(=O)C(C)c4ccc(Cl)cc4)CC3)n2)cc1 (stereo not drawn)
Response: 19

Query: Please report the measured %Inh for `COc1ccc(Nc2nccc(NCCNC(=O)Nc3cc(C)ccc3C)n2)cc1`
Response: 0

Query: Please report the measured %Inh for COC(=O)C(NC(=O)NC1CCN(c2ccnc(Nc3ccc(F)cc3)n2)C1)c1ccccc1 (stereo not drawn)
Response: 7

Query: Please report the measured %Inh for `Cc1c(Cn2c3ccccc3n3c(=O)cc(N4CCOCC4)nc23)cccc1C(F)(F)F`
Response: 0

Query: Please report the measured %Inh for COC(=O)c1cccc(NC(=O)NC2CCN(c3ccnc(Nc4ccc(F)cc4)n3)C2)c1 (stereo not drawn)
Response: 0

Query: Please report the measured %Inh for `CC(=O)c1c(C)c2cnc(Nc3ccc(N4CCNCC4)cn3)nc2n(C2CCCC2)c1=O`
Response: 0

Query: Please report the measured %Inh for `Fc1ccc(-c2nc3n(c2-c2ccncc2)CCS3)cc1`
Response: 0

Query: Please report the measured %Inh for `COc1ccc(Nc2nccc(-c3ccc(NC(=O)c4cc5cc(F)ccc5[nH]4)cc3)n2)cc1`
Response: 0

Query: Please report the measured %Inh for `CS(=O)(=O)CCNCc1nc(-c2ccc3ncnc(Nc4ccc(OCc5ccccc5)c(Cl)c4)c3c2)cs1.Cl`
Response: 0

Query: Please report the measured %Inh for `FC(F)(F)c1ccccc1-c1cc(-c2c[nH]nc2-c2ccccn2)ccn1`
Response: 0

Query: Please report the measured %Inh for `O=C(Nc1n[nH]c2nc(-c3cccs3)c(Br)cc12)C1CCCC1`
Response: 8

Query: Please report the measured %Inh for COC(=O)c1cccc(NC(=O)NC2CCN(c3ccnc(Nc4ccc(OC)cc4)n3)C2)c1 (stereo not drawn)
Response: 0

Query: Please report the measured %Inh for `CNc1cc(-c2ccc3c(N)n[nH]c3c2)nc(N)n1`
Response: 7

Query: Please report the measured %Inh for `CNc1nc(-c2ccc3c(N)n[nH]c3c2)cc(N2C[C@@H](C(=O)NC3CCCCC3)OC[C@H]2C)n1`
Response: 0

Query: Please report the measured %Inh for `CCn1c(-c2c(N)noc2C)nc2cnccc21`
Response: 0

Query: Please report the measured %Inh for `CS(=O)(=O)Cc1ccc(Nc2nccc(-c3c(-c4cccc(NC(=O)C5CCCCC5)c4)nn4ncccc34)n2)cc1`
Response: 0

Query: Please report the measured %Inh for `O=c1cc(N2CCOCC2)nc2n(Cc3cccc(Cl)c3Cl)c3ccccc3n12`
Response: 0

Query: Please report the measured %Inh for `Fc1ccc(-c2nn3cccc(F)c3c2-c2ccncc2)cc1`
Response: 0

Query: Please report the measured %Inh for `Cc1ccc(NC(=O)Nc2ccccc2F)cc1-c1ccc(C(=O)Nc2ccncc2)cc1`
Response: 5

Query: Please report the measured %Inh for `Cc1nccc(-c2c(-c3ccc(F)cc3)ncn2CCCN2CCOCC2)n1.Cl`
Response: 4

Query: Please report the measured %Inh for `Cc1ccccc1-c1cc(-c2c[nH]nc2-c2ccccn2)ccn1`
Response: 0

Query: Please report the measured %Inh for `O=C1NC(=O)C(c2ccc(Cl)cc2)=C1Nc1cccc(Cl)c1`
Response: 13

Query: Please report the measured %Inh for `Cn1cnc2c(N)ncnc21`
Response: 0
